Tested system: T1, EsCas13d, nuclease-dead (Eubacterium siraeum, UniProt B0MS50, R295A;H300A;R849A;H854A)
T1 sequence: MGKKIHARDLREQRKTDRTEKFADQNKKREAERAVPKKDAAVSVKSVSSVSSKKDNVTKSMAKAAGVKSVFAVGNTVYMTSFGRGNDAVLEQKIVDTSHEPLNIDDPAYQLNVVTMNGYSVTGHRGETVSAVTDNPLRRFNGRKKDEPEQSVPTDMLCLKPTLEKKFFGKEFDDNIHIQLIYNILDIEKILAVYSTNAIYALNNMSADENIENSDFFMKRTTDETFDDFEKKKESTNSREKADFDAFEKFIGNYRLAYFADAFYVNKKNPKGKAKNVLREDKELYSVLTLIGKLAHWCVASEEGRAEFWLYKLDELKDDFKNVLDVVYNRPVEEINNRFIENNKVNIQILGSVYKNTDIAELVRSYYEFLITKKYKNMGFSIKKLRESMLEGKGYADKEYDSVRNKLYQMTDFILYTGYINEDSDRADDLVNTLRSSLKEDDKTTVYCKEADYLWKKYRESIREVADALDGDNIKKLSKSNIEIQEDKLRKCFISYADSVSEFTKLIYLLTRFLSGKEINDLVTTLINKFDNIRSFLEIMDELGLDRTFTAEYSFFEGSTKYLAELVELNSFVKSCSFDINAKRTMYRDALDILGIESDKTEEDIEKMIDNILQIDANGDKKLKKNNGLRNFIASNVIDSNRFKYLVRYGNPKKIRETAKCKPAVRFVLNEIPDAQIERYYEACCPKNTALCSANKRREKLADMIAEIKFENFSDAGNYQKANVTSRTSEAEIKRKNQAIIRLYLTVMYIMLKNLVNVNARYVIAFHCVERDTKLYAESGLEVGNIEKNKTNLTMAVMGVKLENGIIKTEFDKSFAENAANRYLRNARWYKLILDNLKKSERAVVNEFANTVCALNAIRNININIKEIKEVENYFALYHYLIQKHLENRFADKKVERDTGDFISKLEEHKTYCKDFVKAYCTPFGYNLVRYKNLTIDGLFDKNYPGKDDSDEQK
Assay: crRNA (strand 1, pre-loaded); Mg2+; 40 mM Tris-HCl pH 7.5, 150 mM NaCl, 6 mM MgCl2, 1 mM DTT, 0.1% Tween-20, 0.2 mg/ml BSA; 25 C; 10 min per concentration, then washed
Condition info: tags: His6-TwinStrep-SUMO cleaved; N-terminal SNAP kept (SNAP-Surface 488); label: 3' end held by stalled T7 RNA polymerase
Some binders, each annotated with its measured Kd.
Quantity: Kd (nM)

[
  {
    "Binder": "target 3 insU 3' of 11,insU 3' of 4 (mixed) RNA 1: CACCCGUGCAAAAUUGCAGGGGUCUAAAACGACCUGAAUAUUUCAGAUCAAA RNA 2: GGGAAUGGAUCCACAUCUACGAAUUCGUUUUUGAUCUGAAAUUAUUCAGUGUCUGCAGAUCGGAAGAGCACACGU",
    "Unit abbrev": "nM",
    "Number": 23.6
  },
  {
    "Binder": "target 1 MT 5'PFS GGC 3'PFS UCU (mixed) RNA 1: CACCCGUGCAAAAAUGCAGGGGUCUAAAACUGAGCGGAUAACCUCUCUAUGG RNA 2: GGGAAUGGAUCCACAUCUACGAAUUCGGCCCAUAGAGAGGUUAUCCGCUCAUCUAGAUCGGAAGAGCACACGU",
    "Unit abbrev": "nM",
    "Number": 10
  },
  {
    "Binder": "target 1 MT 5'PFS AGA 3'PFS AUC (mixed) RNA 1: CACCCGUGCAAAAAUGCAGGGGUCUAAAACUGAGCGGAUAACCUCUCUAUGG RNA 2: GGGAAUGGAUCCACAUCUACGAAUUCAGACCAUAGAGAGGUUAUCCGCUCAAUCAGAUCGGAAGAGCACACGU",
    "Unit abbrev": "nM",
    "Number": 49
  },
  {
    "Binder": "target 1 insA 3' of 21,insA 3' of 13 (mixed) RNA 1: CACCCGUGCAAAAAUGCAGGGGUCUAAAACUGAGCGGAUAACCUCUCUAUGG RNA 2: GGGAAUGGAUCCACAUCUACGAAUUCGUACCAAUAGAGAGAGUUAUCCGCUCACCGAGAUCGGAAGAGCACACGU",
    "Unit abbrev": "nM",
    "Number": 11.7
  }
]

From: paper PMC10786891
